What Dmax was measured for each of the following?
Target: Androgen Receptor dual T878A/L702H mutant protein (Homo sapiens, UniProt P10275, L702H/T878A)
Construct: host or cells: MDA-PCa-2b
Sequence (P10275 1-920 L702H/T878A): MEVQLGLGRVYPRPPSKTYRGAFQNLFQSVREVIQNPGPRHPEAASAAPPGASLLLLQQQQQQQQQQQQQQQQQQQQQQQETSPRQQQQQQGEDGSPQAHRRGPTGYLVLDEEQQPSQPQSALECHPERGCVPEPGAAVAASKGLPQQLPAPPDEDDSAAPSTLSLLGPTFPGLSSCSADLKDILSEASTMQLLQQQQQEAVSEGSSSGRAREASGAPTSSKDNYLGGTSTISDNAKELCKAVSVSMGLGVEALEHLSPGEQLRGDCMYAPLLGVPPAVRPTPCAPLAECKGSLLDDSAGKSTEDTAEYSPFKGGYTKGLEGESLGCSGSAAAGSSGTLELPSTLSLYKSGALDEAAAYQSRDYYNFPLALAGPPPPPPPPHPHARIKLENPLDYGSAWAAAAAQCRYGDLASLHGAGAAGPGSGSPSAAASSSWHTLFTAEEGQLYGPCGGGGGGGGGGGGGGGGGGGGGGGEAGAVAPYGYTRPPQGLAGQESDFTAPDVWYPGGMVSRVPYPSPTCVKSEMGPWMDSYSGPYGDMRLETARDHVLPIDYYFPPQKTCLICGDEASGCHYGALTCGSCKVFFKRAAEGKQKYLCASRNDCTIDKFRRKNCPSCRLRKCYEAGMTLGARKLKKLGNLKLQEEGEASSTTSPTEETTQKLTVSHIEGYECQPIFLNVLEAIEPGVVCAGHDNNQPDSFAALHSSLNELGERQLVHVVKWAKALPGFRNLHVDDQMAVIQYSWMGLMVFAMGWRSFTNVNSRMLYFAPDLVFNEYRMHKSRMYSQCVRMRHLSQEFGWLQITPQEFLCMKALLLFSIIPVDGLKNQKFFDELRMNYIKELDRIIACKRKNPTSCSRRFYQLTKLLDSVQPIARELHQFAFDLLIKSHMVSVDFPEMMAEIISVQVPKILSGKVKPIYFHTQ
Test: Dual Mutant (T878A/L702H) Androgen Receptor Degradation Assay (HTRF, MDA-PCa-2b cells)
Format: cell-based
Details: 18 h, 18 h incubation, read-out: mean asymptote max

Problem: Answer with the recorded Dmax for the molecule listed here: CC1(C)[C@H](NC(=O)c2ccc(N3CCC(CN4CCC(n5ccc6c(N7CCC(=O)NC7=O)cccc65)CC4)CC3)cc2)C(C)(C)[C@H]1Oc1ccc(C#N)c2ncccc12 [Example 43]
Solution: ≥ 50%

Problem: Answer with the recorded Dmax for the molecule listed here: CC1(C)[C@H](NC(=O)c2ccc(N3CCC(O)(CN4CCC(n5ncc6c(N7CCC(=O)NC7=O)cccc65)CC4)CC3)c(F)c2)C(C)(C)[C@H]1Oc1ccc(C#N)c2ncccc12 [Example 48]
Solution: ≥ 50%

Problem: Answer with the recorded Dmax for the molecule listed here: Cc1c(O[C@H]2C(C)(C)[C@H](NC(=O)c3ccc(N4CCC(CN5CCC(n6ncc7c(N8CCC(=O)NC8=O)cccc76)CC5)CC4)c(F)c3)C2(C)C)ccc(C#N)c1Cl [Example 2]
Solution: ≥ 50%

Problem: Answer with the recorded Dmax for the molecule listed here: CC1(C)[C@H](NC(=O)c2ccc(N3CCC(CN4CCC(n5ncc6c(N7CCC(=O)NC7=O)ccnc65)CC4)CC3)c(F)c2)C(C)(C)[C@H]1Oc1ccc(C#N)c2ncccc12 [Example 40]
Solution: ≥ 50%

Problem: Answer with the recorded Dmax for the molecule listed here: CC1(C)[C@H](NC(=O)c2ccc(N3CCC(CN4CCC(n5ncc6c(N7CCC(=O)NC7=O)cccc65)CC4)CC3)c(F)c2)C(C)(C)[C@H]1Oc1ccc(C#N)c2c1CCCO2 [Example 8]
Solution: ≥ 50%

###

Test: in vivo
Details: male, Wistar Han, rat, po, 35 mg/kg
propertyMeasured: Cmax (µg/mL)
Give your result in µg/mL as a bare value.

Problem: Answer with the recorded Cmax for the compound listed here: COc1cc(O[C@H]2C(C)(C)[C@H](NC(=O)c3ccc(N4CCC(CN5CCC(n6ncc7c(N8CCC(=O)NC8=O)nccc76)CC5)CC4)c(F)c3)C2(C)C)ccc1C#N
Solution: 0.849

###

What Dmax was measured for each of the following?
Target: Androgen Receptor dual T878A/L702H mutant protein (Homo sapiens, UniProt P10275, L702H/T878A)
Construct: host or cells: MDA-PCa-2b
Experiment: Dual Mutant (T878A/L702H) Androgen Receptor Degradation Assay (HTRF, MDA-PCa-2b cells)
Format: cell-based
Details: 18 h, 18 h incubation, read-out: mean asymptote max

Problem: Answer with the recorded Dmax for the compound listed here: CC1(C)[C@H](NC(=O)c2ccc(N3CCC(CN4CCC(n5ncc6c(N7CCC(=O)NC7=O)c(F)ccc65)CC4)CC3)c(F)c2)C(C)(C)[C@H]1Oc1ccc(C#N)c2ncccc12 [Example 50]
Solution: ≥ 50%

Problem: Answer with the recorded Dmax for the compound listed here: CC1(C)[C@H](NC(=O)c2ccc(N3CCC(CN4CCC(n5ncc6c(N7CCC(=O)NC7=O)cc(Cl)cc65)CC4)CC3)c(F)c2)C(C)(C)[C@H]1Oc1ccc(C#N)c2ncccc12 [Example 41]
Solution: ≥ 50%

Problem: Answer with the recorded Dmax for the compound listed here: CC1(C)[C@H](NC(=O)c2ccc(N3CCC(CN4CCC(n5ncc6c(N7CCC(=O)NC7=O)cccc65)CC4)CC3)c(F)c2)C(C)(C)[C@H]1Oc1ccc(C#N)c(Cl)c1 [Example 1]
Solution: ≥ 50%

###

Experiment: in vivo
Details: male, Wistar Han, rat, po, 30 mg/kg
propertyMeasured: Cmax

Problem: Answer with the recorded Cmax for the compound listed here: COc1cc(O[C@H]2C(C)(C)[C@H](NC(=O)c3ccc(N4CCC(CN5CCC(n6ncc7c(N8CCC(=O)NC8=O)nccc76)CC5)CC4)c(F)c3)C2(C)C)ccc1C#N
Solution: 318 ng/mL

###

Assay: in vivo
Details: male, Wistar Han, rat, po, 30 mg/kg
propertyMeasured: Tmax (h)
Give your result in h as a bare value.

Problem: Answer with the recorded Tmax for the compound listed here: COc1cc(O[C@H]2C(C)(C)[C@H](NC(=O)c3ccc(N4CCC(CN5CCC(n6ncc7c(N8CCC(=O)NC8=O)nccc76)CC5)CC4)c(F)c3)C2(C)C)ccc1C#N
Solution: 8

###

Test: in vivo
Conditions: male, Wistar Han, rat, po, 35 mg/kg
propertyMeasured: AUC0-t
Hi, when you answer, please include the unit after the number. Thanks!

Problem: Answer with the recorded AUC0-t for the molecule listed here: COc1cc(O[C@H]2C(C)(C)[C@H](NC(=O)c3ccc(N4CCC(CN5CCC(n6ncc7c(N8CCC(=O)NC8=O)nccc76)CC5)CC4)c(F)c3)C2(C)C)ccc1C#N
Solution: 26.2 µg·h/mL

###

Target: Androgen Receptor, LNCaP (AR T878A) (Homo sapiens, UniProt P10275, T878A)
Construct: endogenous in cells; host or cells: LNCaP
Test: Androgen Receptor Degradation-Imaging Assay, LNCaP cell line
Format: cell-based
Conditions: 16 hours treatment, maximum observed degradation
What Dmax was measured for each of the following?

Problem: Answer with the recorded Dmax for the molecule listed here: COc1cc(O[C@H]2C(C)(C)[C@H](NC(=O)c3ccc(N4CCC(CN5CCC(n6ccc7c(N8CCC(=O)NC8=O)cccc76)CC5)CC4)cc3)C2(C)C)ccc1C#N [Example 16]
Solution: ≥ 80%

Problem: Answer with the recorded Dmax for the molecule listed here: CC1(C)[C@H](NC(=O)c2ccc(N3CCC(CN4CCC(n5ncc6c(N7CCC(=O)NC7=O)cccc65)CC4)CC3)c(F)c2)C(C)(C)[C@H]1Oc1ccc(C#N)c2c1CCCO2 [Example 8]
Solution: ≥ 80%

Problem: Answer with the recorded Dmax for the molecule listed here: COc1cc(O[C@H]2C(C)(C)[C@H](NC(=O)c3ccc(N4CCC(CN5CCC(n6ccc7c(N8CCC(=O)NC8=O)nccc76)CC5)CC4)c(F)c3)C2(C)C)ccc1C#N [Example 17]
Solution: ≥ 80%

###

Target: Androgen Receptor dual T878A/L702H mutant protein (Homo sapiens, UniProt P10275, L702H/T878A)
Construct: host or cells: MDA-PCa-2b
Sequence (P10275 1-920 L702H/T878A): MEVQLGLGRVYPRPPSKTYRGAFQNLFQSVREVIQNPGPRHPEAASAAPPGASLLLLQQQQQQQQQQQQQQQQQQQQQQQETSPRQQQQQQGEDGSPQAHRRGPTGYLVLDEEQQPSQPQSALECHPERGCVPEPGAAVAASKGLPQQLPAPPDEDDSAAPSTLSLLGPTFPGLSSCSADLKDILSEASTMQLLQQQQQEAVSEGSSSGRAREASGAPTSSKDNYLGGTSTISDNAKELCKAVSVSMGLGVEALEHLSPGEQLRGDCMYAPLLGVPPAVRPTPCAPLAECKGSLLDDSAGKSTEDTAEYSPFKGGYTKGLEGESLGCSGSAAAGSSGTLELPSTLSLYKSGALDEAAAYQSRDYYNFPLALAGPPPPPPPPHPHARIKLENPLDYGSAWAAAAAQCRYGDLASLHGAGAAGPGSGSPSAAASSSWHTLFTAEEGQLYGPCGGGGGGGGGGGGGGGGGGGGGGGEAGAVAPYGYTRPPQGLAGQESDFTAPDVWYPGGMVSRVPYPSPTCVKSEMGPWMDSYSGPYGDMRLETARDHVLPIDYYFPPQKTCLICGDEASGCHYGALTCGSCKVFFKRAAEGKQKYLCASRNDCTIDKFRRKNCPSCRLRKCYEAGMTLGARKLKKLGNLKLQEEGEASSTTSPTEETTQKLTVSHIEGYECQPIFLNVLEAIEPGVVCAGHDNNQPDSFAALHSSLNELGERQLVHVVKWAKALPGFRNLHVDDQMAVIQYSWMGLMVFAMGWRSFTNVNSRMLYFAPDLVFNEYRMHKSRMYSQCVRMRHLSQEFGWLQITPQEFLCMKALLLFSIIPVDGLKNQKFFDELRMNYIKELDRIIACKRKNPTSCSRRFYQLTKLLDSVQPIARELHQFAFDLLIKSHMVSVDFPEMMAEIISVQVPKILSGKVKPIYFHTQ
Experiment: Dual Mutant (T878A/L702H) Androgen Receptor Degradation Assay (HTRF, MDA-PCa-2b cells)
Format: cell-based
Conditions: 18 h, 18 h incubation, read-out: mean asymptote max
propertyMeasured: Dmax

Problem: Answer with the recorded Dmax for the molecule listed here: COc1c(C#N)ccc(O[C@H]2C(C)(C)[C@H](NC(=O)c3ccc(N4CCC(CN5CCC(n6ncc7c(N8CCC(=O)NC8=O)cccc76)CC5)CC4)c(F)c3)C2(C)C)c1C [Example 5]
Solution: ≥ 50%

Problem: Answer with the recorded Dmax for the molecule listed here: CC1(C)[C@H](NC(=O)c2ccc(N3CCC(CN4CCC(n5ncc6c(N7CCC(=O)NC7=O)cccc65)CC4)CC3)c(F)c2)C(C)(C)[C@H]1Oc1ccc(C#N)c2ncccc12 [Example 6]
Solution: ≥ 50%

Problem: Answer with the recorded Dmax for the molecule listed here: CC1(C)[C@H](NC(=O)c2ccc(N3CC[C@@H](CN4CCC(n5ncc6c(N7CCC(=O)NC7=O)cccc65)CC4)C3)c(F)c2)C(C)(C)[C@H]1Oc1ccc(C#N)c2ncccc12 [Example 33]
Solution: ≥ 50%

These data points were gathered from patent US12577231B2.
